# System: MFM-223
# ASSAY DETAILS: normalised response (% of control), CellTiter-Glo; higher = more viable cells (100 = DMSO, 0 = benzethonium chloride kill control)
# CONDITION DESCRIPTION: incubation time: 72 h
Listed molecules paired with reported normalised response
OBSERVED PROPERTY: normalised response (%)

>  <MOLECULE>
COc1cc2ncnc(Nc3ccc(F)c(Cl)c3)c2cc1NC(=O)/C=C/CN1CCCCC1 [Dacomitinib] (1 nM)

>  <MEASUREMENT>
101

$$$$
>  <MOLECULE>
COc1cc2nccc(Oc3ccc(NC(=O)C4(C(=O)Nc5ccc(F)cc5)CC4)cc3)c2cc1OC [Cabozantinib] (0.1 nM)

>  <MEASUREMENT>
99.5

$$$$
>  <MOLECULE>
C[C@@H](Oc1cc(-c2cnn(C3CCNCC3)c2)cnc1N)c1c(Cl)ccc(F)c1Cl [Crizotinib] (1 nM)

>  <MEASUREMENT>
101

$$$$
>  <MOLECULE>
Cn1c(Nc2ccc(C(F)(F)F)cc2)nc2cc(Oc3ccnc(-c4ncc(C(F)(F)F)[nH]4)c3)ccc21 [RAF265] (100 nM)

>  <MEASUREMENT>
96.5

$$$$
>  <MOLECULE>
CN(N=O)C(=O)N[C@@H](C=O)[C@@H](O)[C@H](O)[C@H](O)CO [Streptozocin] (10 nM)

>  <MEASUREMENT>
108

$$$$
>  <MOLECULE>
CS(=O)(=O)c1ccc(C2=C(c3ccccc3)C(=O)OC2)cc1 [Rofecoxib] (10 nM)

>  <MEASUREMENT>
113

$$$$
>  <MOLECULE>
O=P1(NCCCl)OCCCN1CCCl (stereo not drawn) [Ifosfamide] (10 nM)

>  <MEASUREMENT>
89.1

$$$$
>  <MOLECULE>
NC(=O)Nc1cc(-c2cccc(F)c2)sc1C(=O)N[C@H]1CCCNC1 [AZD7762] (100 nM)

>  <MEASUREMENT>
104

$$$$

The reported numbers originate from the supplement of paper PMC4862054.
